Hello, the source for this data is the supplement of paper PMC6555819, in case you need it.

system: LXRb homodimer (NR concentration 270 nM); test: PBM binding z-score (relative to random genomic background probes); higher = stronger binding; sequences stand for … in GC…GCGATTGACAGCGTAGAATGAAGG
Each entry below carries its reported PBM binding z-score.

Solved entries:
Request: Checklist item: PBM binding z-score tested on LXRb homodimer (NR concentration 270 nM), entry CTCGAAAGGTCGTGATCAGGTGAGTATACCAAAC , value?
Result: 0.0388

Request: Checklist item: PBM binding z-score tested on LXRb homodimer (NR concentration 270 nM), entry CAGCCTAGGTCAGGGCCAGTAGAGGAGGAACGTT , value?
Result: -1.25

Request: Checklist item: PBM binding z-score tested on LXRb homodimer (NR concentration 270 nM), entry CCTAGCAGGCCAGCGTCACTCAAGCATTTCGCTT , value?
Result: -0.612

Request: Checklist item: PBM binding z-score tested on LXRb homodimer (NR concentration 270 nM), entry TCATATAGGTAAACGGGTGAAAGTCCGTAAGTTA , value?
Result: -0.231

Request: Checklist item: PBM binding z-score tested on LXRb homodimer (NR concentration 270 nM), entry TCTTGTAGATCCACAGGAGGTTAAGAAAGATCGA , value?
Result: -0.363

Request: Checklist item: PBM binding z-score tested on LXRb homodimer (NR concentration 270 nM), entry CAAACTAGGTCAGGAGGTCAAAGTCCGCTTCCCG , value?
Result: 1.11

Next:
Request: Checklist item: PBM binding z-score tested on LXRb homodimer (NR concentration 270 nM), entry CCTCGGAAGACAGAAGGTCAGAGCTGTCCGCTTT , value?
Result: -0.462

Request: Checklist item: PBM binding z-score tested on LXRb homodimer (NR concentration 270 nM), entry GCGACTGGGGCAAAGCAGGTTGCCATAAGGTTGG , value?
Result: -1.26

Request: Checklist item: PBM binding z-score tested on LXRb homodimer (NR concentration 270 nM), entry CTACCAAGGTGAGCAAGGTCGTTGATTACTATTC , value?
Result: -0.778

---

tested on: PPARg:RXRa 270nM:90nM, anti-RXR (NR concentration 270 nM, RXRa partner concentration 90 nM); assay: PBM binding z-score (relative to random genomic background probes); higher = stronger binding; sequences stand for … in GC…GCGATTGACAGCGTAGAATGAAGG
experimental_endpoint: PBM binding z-score
When you answer, write just the number.

Request: Could you share which PBM binding z-score value was measured for CCTTACGGGTCACTCCAGGTTATACCATCGGAGT ?
Result: 3.66

Request: Could you share which PBM binding z-score value was measured for ACTATTAGTTGCCTTAGGGCAACCGATACGACGC ?
Result: 0.279

Request: Could you share which PBM binding z-score value was measured for TCTCGGAGGACTCGAAAGGTCAGAGCTCGACATC ?
Result: 2.34

---

system: PPARg DBDmut IVT, anti-PPARg (DBD mutation: PPARg1 K132A/R137A, NR concentration 270 nM); assay: PBM binding z-score (relative to random genomic background probes); higher = stronger binding; sequences stand for … in GC…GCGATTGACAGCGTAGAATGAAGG
Kindly return met if reported PBM binding z-score is no lower than -0.2; return not met if it is lower.

Request: Has CCTACTGGGCCCAAGGTCATTGATTCCAATGCTC a recorded PBM binding z-score greater than or equal to -0.2?
Result: not met

Request: Has ACTTACAGGTCAACGAGGTTATAGCACGCGTATA a recorded PBM binding z-score greater than or equal to -0.2?
Result: met

Request: Has GCTTACGGGCCAAAGGTTATAGCATGAATAGAAT a recorded PBM binding z-score greater than or equal to -0.2?
Result: met

Next:
Request: Has ATCGAAAGCTCGAGGTGAGTATAGAGAAAGGGAA a recorded PBM binding z-score greater than or equal to -0.2?
Result: met

Request: Has GATACAGGGTCAGCTAGAGGCCAGAATATGGAAA a recorded PBM binding z-score greater than or equal to -0.2?
Result: not met

---

Each entry below carries its reported PBM binding z-score.
system: RXRa homodimer (NR concentration 180 nM); assay: PBM binding z-score (relative to random genomic background probes); higher = stronger binding; sequences stand for … in GC…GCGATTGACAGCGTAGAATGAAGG
When you answer, write just the number.

Solved entries:
Request: Could you share which PBM binding z-score value was measured for GCTCGGAGGACAAGGTCAGATCTTTGTCCGTAGA ?
Result: 2.46

Request: Could you share which PBM binding z-score value was measured for GCGACTGGGGCAAAGCAGTTTACCATAAGGTTGG ?
Result: -0.0226

Request: Could you share which PBM binding z-score value was measured for TCTTGTAGATCAGCAGGTTGAGAAAGCTGGCCAA ?
Result: 0.0477

Request: Could you share which PBM binding z-score value was measured for GCGACTTGGGCAAAGCAGGTTACCATAAGGTTGG ?
Result: 0.218

Request: Could you share which PBM binding z-score value was measured for TCTAGTTGGTGAAAGGTCACACACTCGAAATGCG ?
Result: 7.42

Request: Could you share which PBM binding z-score value was measured for CGAACTAGGTCAAAGACAGTGAATCTCCGCACGC ?
Result: 2.67

Next:
Request: Could you share which PBM binding z-score value was measured for ACTAGCAGTCCAAGTTTGGGTCACTCAAACAAAG ?
Result: 0.691

---

Each entry below carries its reported PBM binding z-score.
tested on: RARg:RXRa (NR concentration 270 nM, RXRa partner concentration 90 nM); experiment: PBM binding z-score (relative to random genomic background probes); higher = stronger binding; sequences stand for … in GC…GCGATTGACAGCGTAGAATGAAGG

Solved entries:
Request: Could you share which PBM binding z-score value was measured for AGAACTAGGGCACGCTGAGTTGATAGCAGAGTAG ?
Result: 0.967

Request: Could you share which PBM binding z-score value was measured for ACTATTAGTTGACTTAGGGCAACCAATACGACGC ?
Result: 0.838

Request: Could you share which PBM binding z-score value was measured for ATCTCTAGGTAACATGTTCAGTGAAAGAGAGGAC ?
Result: 0.668

Request: Could you share which PBM binding z-score value was measured for GTACCAAGGTGAATATGTCGTTGATGAGTAGGCG ?
Result: 0.746

Request: Could you share which PBM binding z-score value was measured for CAAACTAGGTCAAGGTCAAAATCGGTTTGTGCCA ?
Result: 5.74

Request: Could you share which PBM binding z-score value was measured for CAACCTAGGTCAAGGTCAAAGTCGGTTTGTGCCA ?
Result: 6.18

Request: Could you share which PBM binding z-score value was measured for CAAACTAGTTCACGAAAGGTCAAAGTCGAATGAC ?
Result: 6.68

Request: Could you share which PBM binding z-score value was measured for CCTCGGAGGAAAACAGGAGGTCAGAGCTGCCAGA ?
Result: 1.32

For the next question, use this sequence.
Request: Could you share which PBM binding z-score value was measured for CCTTACGGGTCACGAGGTTATATCACGACGAGCG ?
Result: 6.16

---

Each entry below carries its reported PBM binding z-score.
system: PPARa:RXRa (NR concentration 270 nM, RXRa partner concentration 90 nM); assay: PBM binding z-score (relative to random genomic background probes); higher = stronger binding; sequences stand for … in GC…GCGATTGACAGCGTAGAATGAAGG
When you answer, write just the number.

Solved entries:
Request: Could you share which PBM binding z-score value was measured for GATACATGGTCAGCTAGAGGCCAGAGTATGGAAA ?
Result: -0.488

Request: Could you share which PBM binding z-score value was measured for GCAGACAGGTGAACCGCAGGTAACTCAGGGTGGC ?
Result: 1.77

Request: Could you share which PBM binding z-score value was measured for CGAACTAGGTCATTGACAGGGCAGTGAATAGTAA ?
Result: 4.74

Next:
Request: Could you share which PBM binding z-score value was measured for ATCTCTAGGTAAGCAAGTTCAGTGAATGCCGAAC ?
Result: 0.496

---

system: PPARg:RXRa 90nM:30nM, anti-RXR (NR concentration 90 nM, RXRa partner concentration 30 nM); test: PBM binding z-score (relative to random genomic background probes); higher = stronger binding; sequences stand for … in GC…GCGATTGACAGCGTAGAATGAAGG
Kindly return Criterion met if reported PBM binding z-score is no lower than 2; return Criterion not met if it is lower.

// below: answered sequences
Request: Has CCTAGTTGGTCAGGAGGTCACACACCGGATATGA a recorded PBM binding z-score greater than or equal to 2?
Result: Criterion met

Request: Has CCTACTGGGCCAAAGGTCATTAATTCCAATGCTC a recorded PBM binding z-score greater than or equal to 2?
Result: Criterion met

Request: Has AGTCAAAGTTCAGGACGAGGTAACGCAAAGCACG a recorded PBM binding z-score greater than or equal to 2?
Result: Criterion met

Request: Has GCGACTGGGGCGTCAGCAGGTTACCATAACTTAA a recorded PBM binding z-score greater than or equal to 2?
Result: Criterion not met

Request: Has GCTGGTAGATCAAGGTTAAGAAAGACTAAGCTAA a recorded PBM binding z-score greater than or equal to 2?
Result: Criterion not met

Request: Has ATCAAAAGGTCGTGAGGTGAGTATACAGAAAGGC a recorded PBM binding z-score greater than or equal to 2?
Result: Criterion met

Next:
Request: Has CGTACTAGGTCATTGACAGGACAGTGAATAGTAA a recorded PBM binding z-score greater than or equal to 2?
Result: Criterion met

Request: Has TTACCAATGTGAAGGTCGTTGATCCCTCTGTAGA a recorded PBM binding z-score greater than or equal to 2?
Result: Criterion not met

Request: Has GCTCGGAGAACAAGGTCAGAGCTTTGTCCGTAGA a recorded PBM binding z-score greater than or equal to 2?
Result: Criterion not met

Request: Has TCTTGTAGATCAACAGGAGGTTTAGAAAGATCGA a recorded PBM binding z-score greater than or equal to 2?
Result: Criterion not met

Request: Has GGAACGAGGGCATTCGAGTTGATAGTATGGCGAT a recorded PBM binding z-score greater than or equal to 2?
Result: Criterion not met

Request: Has CAGCCTAGGTTAGGGCCAGTATAGGAGGAACGTT a recorded PBM binding z-score greater than or equal to 2?
Result: Criterion not met

Request: Has ATCGAAAGGTCGAGGTAAGTATAGAGAAAGGGAA a recorded PBM binding z-score greater than or equal to 2?
Result: Criterion met

Request: Has CTCGAAAGGTCGGTTGAGGTGAGCATACGGATAA a recorded PBM binding z-score greater than or equal to 2?
Result: Criterion not met

Request: Has CCGACTGGGGCAGAAAGATTACCATACCATCCGG a recorded PBM binding z-score greater than or equal to 2?
Result: Criterion not met

Request: Has AGAATGAGGGCACGCTGAGTTGATAGCAGAGTAG a recorded PBM binding z-score greater than or equal to 2?
Result: Criterion not met

Request: Has ATAATGAGGTTACCAAAGATCAGGGAAACGCTTG a recorded PBM binding z-score greater than or equal to 2?
Result: Criterion met

Request: Has CTCGAAAGGTCGGTTGAGGTGTGTATACGGATAA a recorded PBM binding z-score greater than or equal to 2?
Result: Criterion not met

Request: Has CGAACTAGGTCATCCAGGACAGTGAGTACATTGA a recorded PBM binding z-score greater than or equal to 2?
Result: Criterion met

Request: Has ACAGACAGGTGTTGAAGGTAACTCAGGCTATCAT a recorded PBM binding z-score greater than or equal to 2?
Result: Criterion not met

Request: Has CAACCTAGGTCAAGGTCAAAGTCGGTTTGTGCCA a recorded PBM binding z-score greater than or equal to 2?
Result: Criterion met
